These data points were gathered from paper PMC5015959.

Biological target: T1, P. falciparum aldolase (P. falciparum, UniProt Q7KQL9 1-369)
T1 construct: also called fructose 1,6-bisphosphate aldolase; parasite aldolase; source: prepared as described previously [42]
T1 sequence (looked up): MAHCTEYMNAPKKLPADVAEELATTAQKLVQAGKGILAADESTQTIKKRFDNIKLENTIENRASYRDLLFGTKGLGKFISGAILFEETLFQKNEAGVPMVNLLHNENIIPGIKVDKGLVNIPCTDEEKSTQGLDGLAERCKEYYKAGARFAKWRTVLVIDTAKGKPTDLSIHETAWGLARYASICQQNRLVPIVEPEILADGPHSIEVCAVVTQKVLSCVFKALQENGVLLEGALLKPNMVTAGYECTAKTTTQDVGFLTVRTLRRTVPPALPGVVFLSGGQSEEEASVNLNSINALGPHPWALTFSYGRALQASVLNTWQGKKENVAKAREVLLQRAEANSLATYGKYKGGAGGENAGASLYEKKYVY
Test: BLI
Conditions: both partners purified
Where no end group is shown, it is not given here. The star is where a group is joined. Biotin = O=C1N[C@H]2[C@H](CS[C@H]2CCCCC(=O)*)N1
Collected pKd values appear next to each entry.
Entry type: numeric. Quantity: pKd, the -log10 of concentration in molar units.

Sample EBA175 CTD (1445–1502) (also called EBA175 unmodified; source: synthetic peptide; bought: Biomatik, USA) peptide: Biotin-KYQSSEGVMNENNENNFLFEVTDNLDKLSNMFNQQVQETNINDFSEYHEDINDINFKK — what was its pKd?
4.02

Fill in: pKd of Biotin-DRSNKDECDFDMCEEVNNNDHLSNYADKEEIIEIVFDENEEKYF (cysteine pairing not given here, also called RH2B unmodified; source: synthetic peptide; bought: Biomatik, USA) [RH2B CTD (3211–3254)] is ___
3.90
